These measurements were taken from patent US7166598B2.

Assignment: determine reported melting point for the given molecules.

// known answers, use as guide
COC[C@@H]1CN(CCN2CCN(C(=O)c3cc(C(F)(F)F)cc(C(F)(F)F)c3)[C@H](Cc3ccc(C(F)(F)F)cc3)C2)CCO1.Cl.Cl : 146 to 159 °C
COC[C@@H]1C[C@@H](OC)CN1CCN1CCN(C(=O)c2cc(C(F)(F)F)cc(C(F)(F)F)c2)[C@H](Cc2ccc(F)c(OC)c2)C1.Cl.Cl : 128 to 134 °C
COc1cc(C(=O)N2CCN(Cc3cnn(C)c3)C[C@H]2Cc2ccc(Cl)c(O)c2)cc(C(F)(F)F)c1.Cl : 140 to 150 °C
Cc1ccc(C[C@@H]2CN(CCN3CCOc4cccnc43)CCN2C(=O)c2cc(C(F)(F)F)cc(C(F)(F)F)c2)cc1O.Cl.Cl : 190 to 200 °C
CC1(C)COCCN1CC#CCN1CCN(C(=O)c2cc(C(F)(F)F)cc(C(F)(F)F)c2)[C@H](Cc2ccc(Cl)c(O)c2)C1.Cl.Cl : 181 to 186 °C
Cl.Cl.O=C(c1cc(C(F)(F)F)cc(C(F)(F)F)c1)N1CCN(CCN2[C@H](CO)CCC[C@@H]2CO)C[C@H]1Cc1ccc(C(F)(F)F)cc1 : 164 to 167 °C

// each listed molecule needs a value for melting point
1. Cl.Cl.O=C(c1cc(C(F)(F)F)cc(C(F)(F)F)c1)N1CCN(Cc2cccnc2)C[C@H]1Cc1ccc(C(F)(F)F)cc1
2. Cc1cc(C(=O)N2CCN(CCN3CCc4ncccc4C3)C[C@H]2Cc2ccc(Cl)cc2)cc(C(F)(F)F)c1.Cl.Cl.Cl
3. CSc1cc(C(=O)N2CCN(CCN3C[C@@H](C)O[C@@H](C)C3)C[C@H]2Cc2ccc(C(F)(F)F)cc2)cc(C(F)(F)F)c1.Cl.Cl
4. Cl.Cl.Cl.O=C(c1cc(C(F)(F)F)cc(C(F)(F)F)c1)N1CCN(CCN2CCc3ncccc3C2)C[C@H]1Cc1ccc(Cl)cc1
5. COC[C@@H]1C[C@H](COC)CN(CCN2CCN(C(=O)c3cc(C(F)(F)F)cc(C(F)(F)F)c3)[C@H](Cc3ccc(C(F)(F)F)cc3)C2)C1.Cl.Cl

[out]
198 to 223 °C
102.5 to 110.4 °C
154 to 156 °C
172 to 203 °C (dec.)
157 to 160 °C

// each listed molecule needs a value for melting point
1. COc1cc(C(=O)N2CCN(CCN3CCc4ncccc4C3)C[C@H]2Cc2ccc(C(F)(F)F)cc2)cc(C(F)(F)F)c1.Cl.Cl.Cl
2. COc1cc(C(=O)N2CCN(Cc3cnn(C)c3)C[C@H]2Cc2ccc3ccccc3c2)cc(C(F)(F)F)c1.Cl
3. COC[C@@H]1CN(CCN2CCN(C(=O)c3cc(C(F)(F)F)cc(C(F)(F)F)c3)[C@H](Cc3ccc(F)cc3)C2)CCO1.Cl.Cl

[out]
1: 185 to 191 °C; 2: 226 to 228 °C; 3: 129 to 133 °C
